This collection of values is drawn from patent US9708336B2.

experimentalTarget: VIM-1 (Pseudomonas aeruginosa (strain ATCC 15692 / DSM 22644 / CIP 104116 / JCM 14847 / LMG 12228 / 1C / PRS 101 / PAO1), UniProt A0A0F7KYQ8)
measurementDescription: Enzyme activity: determination of IC50, fluorescence assay with CCF2-FA substrate (VIM-1)
Type: biochemical
conditionDetails: VIM-1 enzyme, CCF2-FA fluorescence assay; read-out: VIM-1 IC50
pIC50: −log10 of the molar value.
Please use MET whenever pIC50 is not below 8, and NOT MET whenever it is.

{"columns": ["compound", "classification"],
 "data": [
  ["NS(=O)(=O)c1cccc(-c2ccc(CNCC(=O)NO)cc2)c1-c1nnn[nH]1 [Example 330]", "NOT MET"]
]}

Now look at this entry.
### Prompt Identify whether the reported pIC50 of the following compound is 8 or greater: CCN1CCC(NCc2ccc(-c3cccc(S(N)(=O)=O)c3-c3nnn[nH]3)cc2)CC1 [Example 352]
### Response NOT MET

---

experimentalTarget: VIM-1 (Pseudomonas aeruginosa (strain ATCC 15692 / DSM 22644 / CIP 104116 / JCM 14847 / LMG 12228 / 1C / PRS 101 / PAO1), UniProt A0A0F7KYQ8)
measurementDescription: Enzyme activity: determination of IC50, fluorescence assay with CCF2-FA substrate (VIM-1)
Type: biochemical
conditionDetails: VIM-1 enzyme, CCF2-FA substrate; read-out: VIM-1 IC50
Let's look at some compounds and their measured IC50.
Numbers only; they are read as nM.

Examples with their reported IC50 follow.
{"columns": ["compound", "recordedEndpoint", "reading"],
 "data": [
  ["NS(=O)(=O)c1cccc(-c2cnc3nc(C(F)(F)F)ccn23)c1-c1nnn[nH]1", "IC50", 46.8],
  ["NS(=O)(=O)c1cccc(-c2ccc(C3CCN(CC4CCNC4)CC3)cc2)c1-c1nnn[nH]1 (centres unmarked)", "IC50", 345],
  ["Nc1cc(-c2cccc(S(N)(=O)=O)c2-c2nn[nH]n2)cnc1N", "IC50", 226]
]}

### Prompt Identify IC50 associated with the compound NC[C@H]1CC[C@H](c2ccc(CC3CCNCC3)c(S(N)(=O)=O)c2-c2nn[nH]n2)CC1 [Example 590]
### Response 8.35

### Prompt Identify IC50 associated with the compound NC[C@H]1CC[C@H](c2ccc(CCC3CCNCC3)c(S(N)(=O)=O)c2-c2nnn[nH]2)CC1
### Response 574

---

experimentalTarget: UniProt:C7C422
measurementDescription: biochemical
Format: biochemical
conditionDetails: fluorescence assay with CCF2-FA substrate; read-out: NDM-1 IC50
Let's look at some molecules and their measured pIC50.
Value format note: pIC50 is -log10 of concentration (mol/L); just state the number.

{"columns": ["molecule", "experimentalTarget", "pIC50"],
 "data": [
  ["CN(C(=O)c1ccc(-c2cccc(S(N)(=O)=O)c2-c2nn[nH]n2)cc1)C1CCOCC1 [Example 77]", "UniProt:C7C422", 7.92],
  ["Nc1nnc(C2CCN(c3ccnc(S(N)(=O)=O)c3-c3nnn[nH]3)CC2)s1 [Example 216]", "UniProt:C7C422", 7.39],
  ["CN(C)CCNC(=O)c1ccc(-c2cccc(S(N)(=O)=O)c2-c2nn[nH]n2)cc1 [Example 87]", "UniProt:C7C422", 7.02]
]}

We now examine a further molecule.
### Prompt Identify pIC50 associated with the molecule NS(=O)(=O)c1cccc(C2=CCSCC2)c1-c1nn[nH]n1 [Example 62]
### Response 8.07

---

experimentalTarget: NDM-1 (Klebsiella pneumoniae, UniProt C7C422)
Sequence (C7C422 whole entry, looked up, species assumed): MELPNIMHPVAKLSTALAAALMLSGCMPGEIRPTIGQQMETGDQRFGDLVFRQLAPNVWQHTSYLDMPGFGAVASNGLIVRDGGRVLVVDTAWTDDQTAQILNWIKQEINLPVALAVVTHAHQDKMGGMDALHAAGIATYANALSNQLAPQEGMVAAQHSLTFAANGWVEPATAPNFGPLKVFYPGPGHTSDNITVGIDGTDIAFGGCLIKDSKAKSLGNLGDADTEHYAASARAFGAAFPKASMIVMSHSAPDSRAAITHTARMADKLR
measurementDescription: biochemical
Type: biochemical
conditionDetails: NDM-1 enzyme, CCF2-FA substrate; read-out: NDM-1 IC50
recordedEndpoint: IC50 (nM)
Numbers only; they are read as nM.

Examples with their reported IC50 follow.
{"columns": ["molecule", "experimentalTarget", "unitName", "IC50"],
 "data": [
  ["CC(N[C@H]1CC[C@H](c2ccc(C(F)(F)F)c(S(N)(=O)=O)c2-c2nnn[nH]2)CC1)C1CCNCC1 (some centres unmarked)", "NDM-1 (Klebsiella pneumoniae, UniProt C7C422)", "nM", 31.5],
  ["NCC(CN)c1ccc(-c2cccc(S(N)(=O)=O)c2-c2nnn[nH]2)cc1", "NDM-1 (Klebsiella pneumoniae, UniProt C7C422)", "nM", 57.4],
  ["NS(=O)(=O)c1c(C(F)(F)F)ccc(-c2cccc(C3CCNC3)c2)c1-c1nnn[nH]1 (centres unmarked)", "NDM-1 (Klebsiella pneumoniae, UniProt C7C422)", "nM", 20.8],
  ["NS(=O)(=O)c1cccc(-c2cnc3nc(C(F)(F)F)ccn23)c1-c1nnn[nH]1", "NDM-1 (Klebsiella pneumoniae, UniProt C7C422)", "nM", 22.1],
  ["N[C@@]1(c2ccc(-c3ccc(C(F)(F)F)c(S(N)(=O)=O)c3-c3nn[nH]n3)cc2)CCNC1", "NDM-1 (Klebsiella pneumoniae, UniProt C7C422)", "nM", 7.54]
]}

### Prompt Identify IC50 associated with the molecule NCc1ccc(-c2ccc(CC3CCNCC3)c(S(N)(=O)=O)c2-c2nn[nH]n2)cc1
### Response 38.2

### Prompt Identify IC50 associated with the molecule NS(=O)(=O)c1cccc(-c2cccc3ccoc23)c1-c1nn[nH]n1
### Response 3.4

### Prompt Identify IC50 associated with the molecule NS(=O)(=O)c1c(C(F)(F)F)ccc(-c2cccc(N3CCC(O)CC3)c2)c1-c1nnn[nH]1
### Response 4.65

---

experimentalTarget: VIM-1 (Pseudomonas aeruginosa (strain ATCC 15692 / DSM 22644 / CIP 104116 / JCM 14847 / LMG 12228 / 1C / PRS 101 / PAO1))
measurementDescription: Enzyme activity: determination of IC50, fluorescence assay with CCF2-FA substrate (VIM-1)
Format: biochemical
conditionDetails: VIM-1 enzyme, CCF2-FA substrate; read-out: VIM-1 IC50
Let's look at some molecules and their measured IC50.
Numbers only; they are read as nM.

Examples with their reported IC50 follow.
{"columns": ["molecule", "recordedEndpoint", "unitName", "reading"],
 "data": [
  ["Nc1nc2c(-c3ccc(CCC(=O)O)c(S(N)(=O)=O)c3-c3nn[nH]n3)cccc2s1", "IC50", "nM", 40.3],
  ["NS(=O)(=O)c1c(CCC2CCNCC2)ccc(-c2ccc(C3CNC3)cc2)c1-c1nnn[nH]1", "IC50", "nM", 4.41],
  ["NCC1COc2ccc(-c3ccc(C(F)(F)F)c(S(N)(=O)=O)c3-c3nnn[nH]3)cc21 (stereo not shown)", "IC50", "nM", 1.47]
]}

We now examine a further molecule.
### Prompt Identify IC50 associated with the molecule Nc1nc2c(-c3ccc(CCO)c(S(N)(=O)=O)c3-c3nn[nH]n3)cccc2s1
### Response 8.36

---

experimentalTarget: NDM-1 (Klebsiella pneumoniae)
measurementDescription: biochemical
Type: biochemical
conditionDetails: NDM-1 enzyme, CCF2-FA substrate; read-out: NDM-1 IC50
Let's look at some compounds and their measured pIC50.
Value format note: pIC50 is -log10 of concentration (mol/L); just state the number.

{"columns": ["compound", "pIC50"],
 "data": [
  ["NS(=O)(=O)c1c(C(F)(F)F)ccc(-c2cccc3c2CCCN3)c1-c1nnn[nH]1", 9.11],
  ["NS(=O)(=O)c1c(C(F)(F)F)ccc(-c2cccc3c2CNC3=O)c1-c1nn[nH]n1", 9.27],
  ["NS(=O)(=O)c1c(C(F)(F)F)ccc(-c2ccc(C3CNCCO3)cc2)c1-c1nnn[nH]1 (stereo not shown)", 8.49],
  ["NS(=O)(=O)c1c(C(F)(F)F)ccc([C@H]2CC[C@H](N[C@H]3CC[C@H]4CCN[C@H]4C3)CC2)c1-c1nnn[nH]1", 7.70],
  ["NS(=O)(=O)c1c(CCCCCO)ccc(CCCCCO)c1-c1nn[nH]n1", 7.94]
]}

### Prompt Identify pIC50 associated with the compound NS(=O)(=O)c1c(CC[C@H]2CC[C@H](N)CC2)ccc(-c2ccc(C3CNC3)cc2)c1-c1nnn[nH]1
### Response 8.67

### Prompt Identify pIC50 associated with the compound N=C(NC1CNC1)c1ccc(-c2ccc(C(F)(F)F)c(S(N)(=O)=O)c2-c2nn[nH]n2)cc1
### Response 7.27

---

Let's look at some compounds and their measured pIC50.
experimentalTarget: VIM-1 (Pseudomonas aeruginosa (strain ATCC 15692 / DSM 22644 / CIP 104116 / JCM 14847 / LMG 12228 / 1C / PRS 101 / PAO1), UniProt A0A0F7KYQ8)
measurementDescription: Enzyme activity: determination of IC50, fluorescence assay with CCF2-FA substrate (VIM-1)
Type: biochemical
conditionDetails: fluorescence assay with CCF2-FA substrate; read-out: VIM-1 IC50
Value format note: pIC50 is -log10 of concentration (mol/L); just state the number.

Examples with their reported pIC50 follow.
{"columns": ["inputSmiles", "pIC50"],
 "data": [
  ["NS(=O)(=O)c1cccc(-c2ccc(-n3cccn3)nc2)c1-c1nnn[nH]1", 6.87],
  ["NS(=O)(=O)c1cccc(-c2ccc(CO)cc2)c1-c1nnn[nH]1", 7.23],
  ["NS(=O)(=O)c1nccc(-c2ccc(CO)nc2)c1-c1nnn[nH]1", 6.54],
  ["NS(=O)(=O)c1cccc(Cc2ccccc2)c1-c1nnn[nH]1", 6.16],
  ["Cn1nccc1-c1cccc(S(N)(=O)=O)c1-c1nn[nH]n1", 7.21],
  ["CS(=O)(=O)Nc1cccc(-c2cccc(S(N)(=O)=O)c2-c2nn[nH]n2)c1", 5.97],
  ["NS(=O)(=O)c1cccc(-c2cncs2)c1-c1nn[nH]n1", 6.53],
  ["NS(=O)(=O)c1cccc(-c2ccnnc2)c1-c1nn[nH]n1", 5.27]
]}

We now examine a further compound.
### Prompt Identify pIC50 associated with the compound COC1CCN(C(=O)c2ccc(-c3cccc(S(N)(=O)=O)c3-c3nn[nH]n3)cc2)CC1
### Response 5.38
